Biological target: RAF proto-oncogene serine/threonine-protein kinase (Homo sapiens)
Experiment: Inhibition of human RAF proto-oncogene serine/threonine-protein kinase at 30 uM
METRIC_NAME: inhibition (%)

[
  {
    "SMILES_RECORD": "Cn1c(-c2ccc(S(C)(=O)=O)cc2)nc2c(Sc3ccccc3)ncnc21",
    "TEST_SYSTEM": "RAF proto-oncogene serine/threonine-protein kinase (Homo sapiens)",
    "UNIT_TAG": "%",
    "VAL": 10
  }
]

[a] Nc1[nH]cnc2ncnc1-2
[b] Fc1ccc(Cn2cnc3c(Sc4ccc(F)cc4)ncnc32)cc1
**Query** Exercise: compare a and b ; which one has the greater inhibition? State your choice using its label.
**Result** a
